This section presents compounds with their documented pIC50 values.
target: ELIC (Erwinia chrysanthemi ligand-gated ion channel) (Dickeya chrysanthemi); assay: two-electrode voltage clamp, Xenopus oocytes
Sequence (P0C7B7 whole entry): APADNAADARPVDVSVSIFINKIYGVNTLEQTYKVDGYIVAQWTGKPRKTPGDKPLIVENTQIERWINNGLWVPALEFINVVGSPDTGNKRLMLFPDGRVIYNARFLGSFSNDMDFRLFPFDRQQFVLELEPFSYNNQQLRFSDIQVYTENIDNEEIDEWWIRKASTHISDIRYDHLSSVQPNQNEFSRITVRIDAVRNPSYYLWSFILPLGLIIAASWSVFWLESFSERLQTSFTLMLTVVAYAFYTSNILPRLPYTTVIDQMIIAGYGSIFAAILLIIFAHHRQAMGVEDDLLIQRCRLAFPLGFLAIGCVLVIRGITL
On this scale, pIC50 is minus log10 of a concentration expressed in M (mol/L).

Input: # get_value(readout='pIC50', item= ClC(Cl)Cl [chloroform] )
Output: 3.79

Input: # get_value(readout='pIC50', item= BrC(Br)Br [bromoform] )
Output: 3.90
